System: XF 498 CNS
Assay: NCI tumour cell line growth inhibition, 48 h
parameter: TGI

| compound | test.system | value.observed |
| --- | --- | --- |
| OC(c1ccccc1)(c1ccccc1)c1cccnc1 | XF 498 CNS | > 100 µM |

The recorded TGI for COc1ccc(COCC(Cn2ccnc2)OCc2ccc(C(=O)O)cc2)cc1 (stereo not given) is > 100 µM

The recorded TGI for COc1cc(Oc2c(O)c(C)c(OC)c(C(C)=O)c2O)c(C(C)=O)c(O)c1C is > 100 µM

The recorded TGI for CC(=O)O[C@]12CCC[C@H]1C1(O)C(O)CCC[C@H]12 (stereo not given in full) is > 100 µM

The recorded TGI for CC(=O)NC(CCCN(Cc1ccccc1)C(=O)N(CCCl)N=O)C(=O)NCc1ccccc1 (stereo not given) is > 60.4 µM

Values from PubChem BioAssay (NCI)
